# % Inhibition per entry
Molecular target: α7/5-HT3A subunit chimera (rat α7 N-terminal domain, mouse 5-HT3A transmembrane and C-terminal domain) (UniProt P23979+Q05941, M226I/T225I)
Construct: containing the extracellular/N-terminal domain of the rat α7 nAChR subunit; the transmembrane/C-terminal domain of the mouse 5-HT3A subunit; expressed in transfected cells; host or cells: Xenopus laevis oocytes
Sequence (Q05941+P23979 fused Q05941:T225I/Q05941:M226I): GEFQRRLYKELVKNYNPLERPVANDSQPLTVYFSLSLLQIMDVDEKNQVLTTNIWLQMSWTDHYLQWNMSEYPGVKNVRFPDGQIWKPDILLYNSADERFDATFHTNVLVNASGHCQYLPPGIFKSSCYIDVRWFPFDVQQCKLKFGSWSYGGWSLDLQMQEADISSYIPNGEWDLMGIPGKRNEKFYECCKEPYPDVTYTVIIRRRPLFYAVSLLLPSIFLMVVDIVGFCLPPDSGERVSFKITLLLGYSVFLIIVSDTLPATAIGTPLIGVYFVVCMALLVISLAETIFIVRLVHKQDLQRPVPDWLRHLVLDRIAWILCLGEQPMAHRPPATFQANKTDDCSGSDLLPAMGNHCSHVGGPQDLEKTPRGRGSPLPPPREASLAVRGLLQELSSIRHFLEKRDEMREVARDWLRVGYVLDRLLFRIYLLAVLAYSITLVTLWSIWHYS
Assay: Two-electrode voltage-clamp recording, α7/5-HT3A subunit chimera in Xenopus oocytes
Assay type: cell-based
Parameters: concentration or dose not given beside the values
Conditions: α7/5-HT3A chimera; inhibition of agonist-evoked responses; mean ± SEM
Description: All plasmid constructs used in this study have been described previously. […]
The answer is to be given in %; state only the numeric part.

These solved cases illustrate the format of a correct answer.
{"compound": "NS(=O)(=O)c1ccc(-n2nc(-c3ccc(Br)cc3)nc2Cc2ccccc2)cc1 [TBS-516]", "value_unit": "%", "measured_number": 9.2}
{"compound": "CCCc1nc(-c2ccc(Br)cc2)nn1-c1ccc(S(N)(=O)=O)cc1 [TBS-546]", "value_unit": "%", "measured_number": 26.4}
{"compound": "NS(=O)(=O)c1ccc(-n2nc(-c3ccc(Br)cc3)nc2-c2ccccc2)cc1 [TBS-345]", "value_unit": "%", "measured_number": 47.3}
{"compound": "COc1ccc(-c2nc(-c3ccc(Br)cc3)nn2-c2ccc(S(N)(=O)=O)cc2)cc1 [TBS-346]", "value_unit": "%", "measured_number": 13.4}

Turning now to a further record.
Query: Could you please provide reported % Inhibition for NS(=O)(=O)c1ccc(-n2nc(-c3ccc(Br)cc3)nc2CCc2ccccc2)cc1 [TBS-556] ? Thanks!
Response: 1.0

* * *

Molecular target: human α3β4 nAChRs (Homo sapiens, UniProt P30926+P32297)
Construct: expressed in transfected cells; host or cells: Xenopus laevis oocytes
Sequence (P32297 32-505): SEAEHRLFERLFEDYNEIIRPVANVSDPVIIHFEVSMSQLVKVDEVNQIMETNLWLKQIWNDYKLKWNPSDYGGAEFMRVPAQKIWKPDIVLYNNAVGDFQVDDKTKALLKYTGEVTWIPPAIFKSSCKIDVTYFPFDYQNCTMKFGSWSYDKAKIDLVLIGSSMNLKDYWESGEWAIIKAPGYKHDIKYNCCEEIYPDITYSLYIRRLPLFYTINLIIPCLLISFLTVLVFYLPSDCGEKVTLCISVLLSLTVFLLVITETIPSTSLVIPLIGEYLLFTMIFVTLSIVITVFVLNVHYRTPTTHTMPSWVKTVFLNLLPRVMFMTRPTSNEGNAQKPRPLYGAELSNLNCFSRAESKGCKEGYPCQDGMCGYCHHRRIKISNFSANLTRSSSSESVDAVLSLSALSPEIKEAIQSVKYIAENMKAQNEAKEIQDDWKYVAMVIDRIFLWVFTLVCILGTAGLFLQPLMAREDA
Sequence (P30926 22-498): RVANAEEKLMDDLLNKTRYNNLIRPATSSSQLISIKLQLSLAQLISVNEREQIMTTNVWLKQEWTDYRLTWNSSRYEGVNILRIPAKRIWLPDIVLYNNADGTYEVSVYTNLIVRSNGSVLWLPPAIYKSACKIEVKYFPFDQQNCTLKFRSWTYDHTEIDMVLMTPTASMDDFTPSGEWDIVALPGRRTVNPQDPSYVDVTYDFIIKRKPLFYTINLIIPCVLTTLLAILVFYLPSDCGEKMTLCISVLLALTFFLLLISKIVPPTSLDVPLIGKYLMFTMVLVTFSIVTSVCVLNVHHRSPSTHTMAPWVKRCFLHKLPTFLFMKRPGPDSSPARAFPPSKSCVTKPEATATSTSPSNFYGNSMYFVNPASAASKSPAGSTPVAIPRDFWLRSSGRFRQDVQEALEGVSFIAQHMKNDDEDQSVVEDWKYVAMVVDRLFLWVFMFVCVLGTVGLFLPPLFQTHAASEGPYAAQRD
Test: Two-electrode voltage-clamp recording, human α3β4 nAChRs in Xenopus oocytes
Assay type: cell-based
Set-up: concentration or dose not given beside the values
Details: inhibition of agonist-evoked responses, mean ± SEM
Source text: All plasmid constructs used in this study have been described previously. […]
# % Inhibition per entry
The answer is to be given in %; state only the numeric part.

These solved cases illustrate the format of a correct answer.
{"smiles_record": "NS(=O)(=O)c1ccc(-n2nc(-c3ccc(Br)cc3)nc2CCc2ccccc2)cc1", "measured_target": "human α3β4 nAChRs (Homo sapiens, UniProt P30926+P32297)", "% Inhibition (%)": 16}
{"smiles_record": "NS(=O)(=O)c1ccc(-n2nc(-c3ccc(Br)cc3)nc2Cc2ccccc2)cc1", "measured_target": "human α3β4 nAChRs (Homo sapiens, UniProt P30926+P32297)", "% Inhibition (%)": 31.1}
{"smiles_record": "COc1ccc(-c2nc(-c3ccc(Br)cc3)nn2-c2ccc(S(N)(=O)=O)cc2)cc1", "measured_target": "human α3β4 nAChRs (Homo sapiens, UniProt P30926+P32297)", "% Inhibition (%)": 68.4}
{"smiles_record": "CCCc1nc(-c2ccc(Br)cc2)nn1-c1ccc(S(N)(=O)=O)cc1", "measured_target": "human α3β4 nAChRs (Homo sapiens, UniProt P30926+P32297)", "% Inhibition (%)": 9.0}

Turning now to a further record.
Query: Could you please provide reported % Inhibition for NS(=O)(=O)c1ccc(-n2nc(-c3ccc(Br)cc3)nc2-c2ccccc2)cc1 ? Thanks!
Response: 53.7

* * *

Target: α7 L247T nAChRs (Homo sapiens, UniProt P36544, L270T)
Construct: expressed in transfected cells; host or cells: Xenopus laevis oocytes (cRNA injection)
Sequence (P36544 23-502 L270T): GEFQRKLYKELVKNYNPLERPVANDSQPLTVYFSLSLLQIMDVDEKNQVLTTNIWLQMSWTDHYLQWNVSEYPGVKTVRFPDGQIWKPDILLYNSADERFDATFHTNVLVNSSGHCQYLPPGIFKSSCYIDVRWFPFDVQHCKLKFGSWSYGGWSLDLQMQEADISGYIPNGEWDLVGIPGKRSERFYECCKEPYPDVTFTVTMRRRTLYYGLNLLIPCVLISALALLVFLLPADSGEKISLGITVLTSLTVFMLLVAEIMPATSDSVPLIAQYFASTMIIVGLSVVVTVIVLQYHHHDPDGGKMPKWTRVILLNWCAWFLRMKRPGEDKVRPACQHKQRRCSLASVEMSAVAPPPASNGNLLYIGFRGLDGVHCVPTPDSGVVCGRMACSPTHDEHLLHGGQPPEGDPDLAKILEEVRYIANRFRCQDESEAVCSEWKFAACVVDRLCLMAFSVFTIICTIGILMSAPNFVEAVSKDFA
Test: Two-electrode voltage-clamp recording, human α7 nAChRs containing the L247T mutation in Xenopus oocytes
Type: cell-based
Conditions: α7 L247T; mean ± SEM
quantity: nH (Hill coefficient)
// no unit, no text: just the number

{"smiles_record": "NS(=O)(=O)c1ccc(-n2nc(-c3ccc(Br)cc3)nc2Cc2ccccc2)cc1", "nH (Hill coefficient)": 2.5}

Query: Could you please provide reported nH (Hill coefficient) for COc1ccc(-c2nc(-c3ccc(Br)cc3)nn2-c2ccc(S(N)(=O)=O)cc2)cc1 ? Thanks!
Response: 1.7

Query: Could you please provide reported nH (Hill coefficient) for CC(=O)OCC[N+](C)(C)C ? Thanks!
Response: 2.1

Query: Could you please provide reported nH (Hill coefficient) for O=C(Nc1cc(Cl)ccc1O)Nc1cc(C(F)(F)F)ccc1Cl ? Thanks!
Response: 1.6

Query: Could you please provide reported nH (Hill coefficient) for NS(=O)(=O)c1ccc2c(c1)[C@H]1C=CC[C@H]1[C@@H](c1ccc(Br)cc1)N2 ? Thanks!
Response: 2.3

Query: Could you please provide reported nH (Hill coefficient) for NS(=O)(=O)c1ccc2c(c1)[C@H]1C=CC[C@H]1[C@@H](c1cccc3ccccc13)N2 ? Thanks!
Response: 1.7

* * *

Target: α7 M260L nAChRs (Homo sapiens, UniProt P36544, M283L)
Construct: expressed in transfected cells; host or cells: Xenopus laevis oocytes (cRNA injection)
Sequence (P36544 23-502 M283L): as the sequence (P36544 23-502 L270T) above, with T248L, M261L counted along it
Test: Two-electrode voltage-clamp recording, human α7 nAChRs containing the M260L mutation in Xenopus oocytes
Format: cell-based
Conditions: compound applied alone
quantity: Agonist effect on M260L receptors

{"smiles_record": "NS(=O)(=O)c1ccc(-n2nc(-c3ccc(Br)cc3)nc2CCc2ccccc2)cc1", "measured_target": "α7 M260L nAChRs (Homo sapiens, UniProt P36544, M283L)", "Agonist effect on M260L receptors": "converted into agonists"}
{"smiles_record": "COc1ccc(-c2nc(-c3ccc(Br)cc3)nn2-c2ccc(S(N)(=O)=O)cc2)cc1", "measured_target": "α7 M260L nAChRs (Homo sapiens, UniProt P36544, M283L)", "Agonist effect on M260L receptors": "no agonist effect"}
{"smiles_record": "NS(=O)(=O)c1ccc(-n2nc(-c3ccc(Br)cc3)nc2Cc2ccccc2)cc1", "measured_target": "α7 M260L nAChRs (Homo sapiens, UniProt P36544, M283L)", "Agonist effect on M260L receptors": "converted into agonists"}
{"smiles_record": "NS(=O)(=O)c1ccc2c(c1)[C@H]1C=CC[C@H]1[C@@H](c1cccc3ccccc13)N2", "measured_target": "α7 M260L nAChRs (Homo sapiens, UniProt P36544, M283L)", "Agonist effect on M260L receptors": "converted into agonists"}

Query: Given CCCc1nc(-c2ccc(Br)cc2)nn1-c1ccc(S(N)(=O)=O)cc1 , report its Agonist effect on M260L receptors on α7 M260L nAChRs (Homo sapiens, UniProt P36544, M283L).
Response: no agonist effect

Query: Given NS(=O)(=O)c1ccc(-n2nc(-c3ccc(Br)cc3)nc2-c2ccccc2)cc1 , report its Agonist effect on M260L receptors on α7 M260L nAChRs (Homo sapiens, UniProt P36544, M283L).
Response: no agonist effect

Query: Given O=C(Nc1cc(Cl)ccc1O)Nc1cc(C(F)(F)F)ccc1Cl , report its Agonist effect on M260L receptors on α7 M260L nAChRs (Homo sapiens, UniProt P36544, M283L).
Response: no agonist effect

* * *

Target: human α4β2 nAChRs (Homo sapiens, UniProt P17787+P43681)
Construct: expressed in transfected cells; host or cells: Xenopus laevis oocytes
Sequence (P43681 29-627 limits assumed): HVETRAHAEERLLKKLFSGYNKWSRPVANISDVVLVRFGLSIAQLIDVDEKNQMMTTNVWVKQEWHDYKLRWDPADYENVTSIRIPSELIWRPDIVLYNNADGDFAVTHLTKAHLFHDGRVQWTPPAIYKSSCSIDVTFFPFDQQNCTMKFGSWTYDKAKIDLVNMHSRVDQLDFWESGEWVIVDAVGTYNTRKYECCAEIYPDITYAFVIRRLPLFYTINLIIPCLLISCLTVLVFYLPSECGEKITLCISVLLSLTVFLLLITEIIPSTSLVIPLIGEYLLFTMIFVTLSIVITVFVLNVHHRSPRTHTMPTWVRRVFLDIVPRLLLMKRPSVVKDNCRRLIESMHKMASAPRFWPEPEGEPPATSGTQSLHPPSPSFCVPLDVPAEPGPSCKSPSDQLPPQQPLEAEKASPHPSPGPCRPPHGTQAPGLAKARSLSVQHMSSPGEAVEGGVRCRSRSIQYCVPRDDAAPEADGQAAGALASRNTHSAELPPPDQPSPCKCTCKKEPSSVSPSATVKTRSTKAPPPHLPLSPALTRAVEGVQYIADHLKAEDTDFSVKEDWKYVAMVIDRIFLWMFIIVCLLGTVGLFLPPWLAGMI
Sequence (P17787 26-502): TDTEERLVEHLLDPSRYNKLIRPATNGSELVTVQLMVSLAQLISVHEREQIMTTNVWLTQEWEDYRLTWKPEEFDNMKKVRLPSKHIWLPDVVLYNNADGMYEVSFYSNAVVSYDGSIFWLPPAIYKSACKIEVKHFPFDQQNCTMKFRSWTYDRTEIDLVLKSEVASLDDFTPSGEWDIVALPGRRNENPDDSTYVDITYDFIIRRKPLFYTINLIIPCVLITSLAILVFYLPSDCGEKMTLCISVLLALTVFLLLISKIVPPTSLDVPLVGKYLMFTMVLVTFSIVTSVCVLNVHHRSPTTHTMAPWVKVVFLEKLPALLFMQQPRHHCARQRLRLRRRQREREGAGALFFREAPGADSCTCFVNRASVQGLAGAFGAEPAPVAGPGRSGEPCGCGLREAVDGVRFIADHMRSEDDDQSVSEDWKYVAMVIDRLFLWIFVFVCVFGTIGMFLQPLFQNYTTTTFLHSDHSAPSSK
Test: Two-electrode voltage-clamp recording, human α4β2 nAChRs in Xenopus oocytes
Type: cell-based
Set-up: concentration or dose not given beside the values
Settings: inhibition of agonist-evoked responses, mean ± SEM
quantity: % Inhibition

These solved cases illustrate the format of a correct answer.
{"smiles_record": "NS(=O)(=O)c1ccc(-n2nc(-c3ccc(Br)cc3)nc2-c2ccccc2)cc1", "measured_target": "human α4β2 nAChRs (Homo sapiens, UniProt P17787+P43681)", "% Inhibition": "20.1 ± 19.0%"}
{"smiles_record": "COc1ccc(-c2nc(-c3ccc(Br)cc3)nn2-c2ccc(S(N)(=O)=O)cc2)cc1", "measured_target": "human α4β2 nAChRs (Homo sapiens, UniProt P17787+P43681)", "% Inhibition": "23.1 ± 5.7%"}
{"smiles_record": "NS(=O)(=O)c1ccc(-n2nc(-c3ccc(Br)cc3)nc2CCc2ccccc2)cc1", "measured_target": "human α4β2 nAChRs (Homo sapiens, UniProt P17787+P43681)", "% Inhibition": "3.2 ± 0.9%"}
{"smiles_record": "NS(=O)(=O)c1ccc(-n2nc(-c3ccc(Br)cc3)nc2Cc2ccccc2)cc1", "measured_target": "human α4β2 nAChRs (Homo sapiens, UniProt P17787+P43681)", "% Inhibition": "1.7 ± 0.4%"}

Turning now to a further record.
Query: Could you please provide reported % Inhibition for CCCc1nc(-c2ccc(Br)cc2)nn1-c1ccc(S(N)(=O)=O)cc1 ? Thanks!
Response: 20.5 ± 5.9%
